- tested_target: Sodium-dependent serotonin transporter (Rattus norvegicus)
- Sequence (P31652 whole entry): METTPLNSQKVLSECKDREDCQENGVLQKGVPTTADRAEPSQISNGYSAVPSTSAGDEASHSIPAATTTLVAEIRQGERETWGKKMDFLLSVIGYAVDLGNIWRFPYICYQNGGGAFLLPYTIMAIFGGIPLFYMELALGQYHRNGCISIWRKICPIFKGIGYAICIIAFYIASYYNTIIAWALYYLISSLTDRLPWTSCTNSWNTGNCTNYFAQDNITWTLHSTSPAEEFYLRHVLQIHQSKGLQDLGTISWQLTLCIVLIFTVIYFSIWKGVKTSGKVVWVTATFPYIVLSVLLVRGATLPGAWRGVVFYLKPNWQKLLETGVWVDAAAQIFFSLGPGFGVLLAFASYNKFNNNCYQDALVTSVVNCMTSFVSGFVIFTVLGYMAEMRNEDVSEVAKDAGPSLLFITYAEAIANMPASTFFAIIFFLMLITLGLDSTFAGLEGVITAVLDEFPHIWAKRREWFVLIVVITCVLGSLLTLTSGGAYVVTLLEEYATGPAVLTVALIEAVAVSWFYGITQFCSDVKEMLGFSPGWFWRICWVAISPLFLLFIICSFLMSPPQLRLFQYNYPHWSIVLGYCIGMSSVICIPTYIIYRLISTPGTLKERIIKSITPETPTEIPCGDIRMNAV
pKi: −log10 of the molar value.
quantity_name: pKi

INSERT INTO results (smi, quantity_name, result) VALUES
  ('COC(=O)[C@H]1[C@@H](c2ccc(I)cc2)C[C@@H]2CC[C@H]1N2C', 'pKi', 8.51);

----------
# collection of pKi values tested on Norepinephrine transporter (Rattus norvegicus, UniProt Q9JIA2)
pKi: −log10 of the molar value.
quantity_name: pKi

INSERT INTO assay_data (molecule, quantity_name, result) VALUES
  ('COC(=O)[C@H]1[C@@H](c2ccc(I)cc2)C[C@@H]2CC[C@H]1N2C', 'pKi', 7.10),
  ('COC(=O)[C@H]1C(c2ccc(Cl)c(Cl)c2)CC2CCC1N2C/C=C/I (some centres not stated)', 'pKi', 6.30);
